Data provenance is ChEMBL document CHEMBL4689842.

System: HEK-293T
Assay: Multiplex assay against HEK293T;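 also: share of the cells with healthy nuclei that show this phenotype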
Type: toxicity, cell-based
Details: human, 48 h, 1 µM, compound concentration 1 uM, replicate 1
Dear colleague, classification is by Population Tubulin-Different-Phenotype (%), with ranges listed here: b0 = under 40%, b1 = from 40% up to 70%, b2 = 70% and over

molecule	target or system	qualitative label
COc1cc(-n2cnc3cc(-c4ccc(Cl)cc4)sc3c2=O)ccc1OCCN1CCCC1	HEK-293T	b1
COc1cccc([C@@H](C)NCCCc2ccccc2Cl)c1.Cl [TECALCET HYDROCHLORIDE]	HEK-293T	b0
C[C@@H](NCCCc1cccc(C(F)(F)F)c1)c1cccc2ccccc12.Cl [CINACALCET HYDROCHLORIDE]	HEK-293T	b1
CN(C)CC#Cc1ccc(OCCCc2sc(N3CCc4cccc(C(=O)Nc5nc6ccccc6s5)c4C3)nc2C(=O)O)c(F)c1	HEK-293T	b0
CNc1nc(NCc2ccc(NS(C)(=O)=O)cc2Cl)cc(-c2ccccn2)n1	HEK-293T	b0
Cc1[nH]c(/C=C2\C(=O)Nc3ccc(S(=O)(=O)N(C)c4cccc(Cl)c4)cc32)c(C)c1C(=O)N1CCN(C)CC1	HEK-293T	b2
OC1(c2ccc(Cl)cc2)CCN(Cc2c[nH]c3ccccc23)CC1	HEK-293T	b0
Cc1cc(C)cc(-c2cnc3cc(Cl)c(-c4cccc(O)c4)cc3c2OCCCN)c1	HEK-293T	b2

====

System: Fibroblast
Assay: Multiplex assay against human fibroblast
Assay type: toxicity, cell-based
Conditions: 24 h, 1 µM, compound concentration 1 uM, replicate 2
Returns Satisfied if the recorded Population Mitotic Cells (%) is greater than or equal to 60%, and Not satisfied otherwise.

compound	qualitative label
COc1cc(-n2cnc3cc(-c4ccc(Cl)cc4)sc3c2=O)ccc1OCCN1CCCC1	Not satisfied
CN(C)C(=O)/C(C#N)=C/c1ccc(-c2nc3cnc4[nH]ccc4c3n2C2CCCCC2)o1	Not satisfied
OC1(c2ccc(Cl)cc2)CCN(Cc2c[nH]c3ccccc23)CC1	Satisfied
Cc1[nH]c(/C=C2\C(=O)Nc3ccc(S(=O)(=O)N(C)c4cccc(Cl)c4)cc32)c(C)c1C(=O)N1CCN(C)CC1	Not satisfied
CNc1nc(NCc2ccc(NS(C)(=O)=O)cc2Cl)cc(-c2ccccn2)n1	Satisfied
C=CC(=O)Nc1ccc2ncnc(Nc3ccc(OCc4cccc(F)c4)c(Cl)c3)c2c1.Cc1ccc(S(=O)(=O)O)cc1	Not satisfied
C[C@@H](NCCCc1cccc(C(F)(F)F)c1)c1cccc2ccccc12.Cl [CINACALCET HYDROCHLORIDE]	Satisfied
C[C@@]1(C(=O)Nc2ccc(F)nc2)CCCN1c1nc(Nc2cc(C3CC3)n[nH]2)c2cccn2n1	Not satisfied
Cn1cc(-c2[nH]c3cc(NC(=O)[C@H](N)C4CCCCC4)cc4c3c2C=NNC4=O)cn1	Not satisfied
Nc1c(C(=O)NCc2ccc(C(=O)NCCCC3CCCCC3)cc2)cnn1-c1ccccc1	Satisfied
CC(C)NCC(O)COc1ccc(CCOCC2CC2)cc1.Cl (centres undefined) [BETAXOLOL HYDROCHLORIDE]	Satisfied
Cc1cc(C)cc(-c2cnc3cc(Cl)c(-c4cccc(O)c4)cc3c2OCCCN)c1	Not satisfied
COc1cccc([C@@H](C)NCCCc2ccccc2Cl)c1.Cl [TECALCET HYDROCHLORIDE]	Not satisfied
Cc1nc(Nc2n[nH]c3c2CN(C(=O)N[C@H](CN(C)C)c2ccccc2)C3(C)C)c2sccc2n1	Not satisfied
CCN(CC)CCCCNc1ncc2cc(-c3cc(OC)cc(OC)c3)c(NC(=O)NC(C)(C)C)nc2n1	Not satisfied
Cc1nc(-c2ccc(-c3ccc(C(=O)N4CCc5cc6c(cc54)C4(CCN(C)CC4)CO6)cc3)c(C)c2)no1	Satisfied
O=C1NCN(c2ccccc2)C12CCN(CCCOc1ccc(F)cc1)CC2 [SPIRAMIDE]	Satisfied
CN1CCN(c2ccc(OC(F)(F)F)c(Nc3ncc4c(n3)-c3c(c(C(N)=O)nn3CCO)CC4)c2)CC1	Not satisfied
NC(=O)Nc1cc(-c2cccc(F)c2)sc1C(=O)N[C@H]1CCCNC1	Not satisfied
CN1CCC[C@@H]1CCO[C@](C)(c1ccccc1)c1ccc(Cl)cc1.O=C(O)/C=C/C(=O)O [CLEMASTINE FUMARATE]	Satisfied
Cl.N#Cc1ccc2[nH]cc(CCCCN3CCN(c4ccc5oc(C(N)=O)cc5c4)CC3)c2c1 [VILAZODONE HYDROCHLORIDE]	Not satisfied
COc1cc2nccc(Oc3ccc(NC(=O)Nc4cc(C)on4)c(Cl)c3)c2cc1OC.O	Satisfied
Cc1c(-c2ccc(O)cc2)n(Cc2ccc(OCCN3CCCCCC3)cc2)c2ccc(O)cc12	Satisfied
Cc1nc(-c2cn3c(n2)-c2ccc(-c4cnn(C(C)(C)C(N)=O)c4)cc2OCC3)n(C(C)C)n1	Not satisfied
C=CC(=O)Nc1cc2c(Nc3ccc(F)c(Cl)c3)ncnc2cc1OCCCN1CCOCC1.Cl.Cl [CANERTINIB DIHYDROCHLORIDE]	Not satisfied
CC(C)(O)CNc1ncc(-c2ccnc(Nc3ccnc(Cl)c3)n2)c(CC2CC2)n1	Satisfied
CN1CCN(CCOc2cc(OC3CCOCC3)c3c(Nc4c(Cl)ccc5c4OCO5)ncnc3c2)CC1	Not satisfied
C=CC(=O)Nc1cccc(C(=O)Nc2ccc(Nc3cc(-c4[nH]c(SC)nc4C)ccn3)cc2)c1	Satisfied
CN(C)CC#Cc1ccc(OCCCc2sc(N3CCc4cccc(C(=O)Nc5nc6ccccc6s5)c4C3)nc2C(=O)O)c(F)c1	Not satisfied
CN1CCCC(n2nc(Cc3ccc(Cl)cc3)c3ccccc3c2=O)CC1.Cl (centres undefined) [AZELASTINE HYDROCHLORIDE]	Not satisfied
CN(C)C(=O)N[C@H]1CC[C@H](CCN2CCN(c3cccc(Cl)c3Cl)CC2)CC1.Cl [CARIPRAZINE HYDROCHLORIDE]	Not satisfied
c1cn2cc(-c3ccc4cn[nH]c4c3)nc(Nc3ccc(N4CCOCC4)cc3)c2n1	Satisfied
COc1ncc(-c2ccc3nccc(-c4ccnnc4)c3c2)cc1NS(=O)(=O)c1ccc(F)cc1F	Satisfied

====

Test system: U2OS
Assay: Multiplex assay against U2OS
Type: toxicity, cell-based
Details: human, 48 h, 1 µM, compound concentration 1 uM, replicate 1

compound	target or system	unit descriptor	Population Apoptotic (%)
COc1ncc(-c2ccc3nccc(-c4ccnnc4)c3c2)cc1NS(=O)(=O)c1ccc(F)cc1F	U2OS	%	59
CC(C)(O)CNc1ncc(-c2ccnc(Nc3ccnc(Cl)c3)n2)c(CC2CC2)n1	U2OS	%	45
CN(C)CC#Cc1ccc(OCCCc2sc(N3CCc4cccc(C(=O)Nc5nc6ccccc6s5)c4C3)nc2C(=O)O)c(F)c1	U2OS	%	67
C[C@@H](NCCCc1cccc(C(F)(F)F)c1)c1cccc2ccccc12.Cl [CINACALCET HYDROCHLORIDE]	U2OS	%	38
Cc1nc(-c2ccc(-c3ccc(C(=O)N4CCc5cc6c(cc54)C4(CCN(C)CC4)CO6)cc3)c(C)c2)no1	U2OS	%	54
CN(C)C(=O)/C(C#N)=C/c1ccc(-c2nc3cnc4[nH]ccc4c3n2C2CCCCC2)o1	U2OS	%	55
Cl.N#Cc1ccc2[nH]cc(CCCCN3CCN(c4ccc5oc(C(N)=O)cc5c4)CC3)c2c1 [VILAZODONE HYDROCHLORIDE]	U2OS	%	38
CC[C@H](C)C(=O)O[C@H]1C[C@@H](C)C=C2C=C[C@H](C)[C@H](CC[C@@H]3C[C@@H](O)CC(=O)O3)[C@H]21	U2OS	%	41
OC1(c2ccc(Cl)cc2)CCN(Cc2c[nH]c3ccccc23)CC1	U2OS	%	23

====

System: U2OS
Assay: Multiplex assay against U2OS
Assay type: toxicity, cell-based
Details: human, 48 h, 10 µM, compound concentration 10 uM, replicate 1
parameter measured: Population Normal (%)

molecule	target or system	parameter measured	measurement
COc1cc2nccc(Oc3ccc(NC(=O)Nc4cc(C)on4)c(Cl)c3)c2cc1OC.O	U2OS	Population Normal (%)	86
CC(C)(O)CNc1ncc(-c2ccnc(Nc3ccnc(Cl)c3)n2)c(CC2CC2)n1	U2OS	Population Normal (%)	84
COc1cccc([C@@H](C)NCCCc2ccccc2Cl)c1.Cl [TECALCET HYDROCHLORIDE]	U2OS	Population Normal (%)	88
CN1CCCC(n2nc(Cc3ccc(Cl)cc3)c3ccccc3c2=O)CC1.Cl (centres undefined) [AZELASTINE HYDROCHLORIDE]	U2OS	Population Normal (%)	88
CN1CCN(c2ccc(OC(F)(F)F)c(Nc3ncc4c(n3)-c3c(c(C(N)=O)nn3CCO)CC4)c2)CC1	U2OS	Population Normal (%)	97
NC(=O)Nc1cc(-c2cccc(F)c2)sc1C(=O)N[C@H]1CCCNC1	U2OS	Population Normal (%)	84
Cl.N#Cc1ccc2[nH]cc(CCCCN3CCN(c4ccc5oc(C(N)=O)cc5c4)CC3)c2c1 [VILAZODONE HYDROCHLORIDE]	U2OS	Population Normal (%)	78
OC1(c2ccc(Cl)cc2)CCN(Cc2c[nH]c3ccccc23)CC1	U2OS	Population Normal (%)	88
c1cn2cc(-c3ccc4cn[nH]c4c3)nc(Nc3ccc(N4CCOCC4)cc3)c2n1	U2OS	Population Normal (%)	70
